Biological target: recombinant human D1 receptor (Homo sapiens)
Sequence (P21728 whole entry): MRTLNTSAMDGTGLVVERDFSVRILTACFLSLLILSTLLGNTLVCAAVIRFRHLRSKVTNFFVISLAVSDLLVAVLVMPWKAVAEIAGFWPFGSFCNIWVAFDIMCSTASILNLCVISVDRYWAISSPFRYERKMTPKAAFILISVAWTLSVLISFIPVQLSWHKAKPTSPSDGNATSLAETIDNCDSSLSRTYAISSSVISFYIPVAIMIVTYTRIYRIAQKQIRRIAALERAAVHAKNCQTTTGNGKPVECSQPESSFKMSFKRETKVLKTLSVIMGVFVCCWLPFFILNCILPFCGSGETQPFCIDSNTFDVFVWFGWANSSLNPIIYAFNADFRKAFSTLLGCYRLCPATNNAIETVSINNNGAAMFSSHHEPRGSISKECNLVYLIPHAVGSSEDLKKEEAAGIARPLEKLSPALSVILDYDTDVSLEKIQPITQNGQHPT
Assay: [3H]SCH23390 binding to LhD1 cells
Settings: read-out: D1 [3H]SCH23390 Ki (nM) ± SEM

>  <COMPOUND>
CCN(CC)C(=O)[C@@H]1C=C2c3cccc4[nH]cc(c34)C[C@H]2N(C)C1 [LSD, lysergic acid diethylamide]

>  <TARGET_OR_SYSTEM>
recombinant human D1 receptor (Homo sapiens)

>  <Ki / nM>
273

$$$$

----------
Biological target: recombinant human norepinephrine transporter (Homo sapiens)
Sequence (P23975 whole entry): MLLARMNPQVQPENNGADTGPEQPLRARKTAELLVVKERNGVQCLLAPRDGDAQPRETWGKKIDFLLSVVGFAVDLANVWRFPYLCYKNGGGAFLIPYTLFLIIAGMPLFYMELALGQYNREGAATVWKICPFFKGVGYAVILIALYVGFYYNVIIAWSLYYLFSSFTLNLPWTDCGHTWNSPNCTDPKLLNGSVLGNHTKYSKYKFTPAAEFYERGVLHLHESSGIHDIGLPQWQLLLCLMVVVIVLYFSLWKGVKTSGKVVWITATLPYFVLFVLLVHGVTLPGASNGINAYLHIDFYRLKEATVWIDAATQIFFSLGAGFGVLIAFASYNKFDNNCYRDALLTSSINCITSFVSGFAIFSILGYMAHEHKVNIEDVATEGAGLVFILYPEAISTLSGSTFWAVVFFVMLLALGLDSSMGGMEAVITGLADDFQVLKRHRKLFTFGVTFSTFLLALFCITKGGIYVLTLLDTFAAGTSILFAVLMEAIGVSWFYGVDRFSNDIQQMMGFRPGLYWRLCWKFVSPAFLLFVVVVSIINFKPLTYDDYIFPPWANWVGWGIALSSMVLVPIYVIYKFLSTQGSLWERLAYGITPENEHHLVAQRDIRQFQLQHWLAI
Experiment: biochemical
Format: binding
pKi: −log10 of the molar value.
READOUT_TYPE: pKi

>  <COMPOUND_STRUCTURE_STRING>
C=C[C@H]1C[N@@]2CC[C@H]1C[C@H]2[C@H](O)c1ccnc2ccc(OC)cc12

>  <OBS_VALUE>
< 5.26

$$$$

----------
Target: recombinant human D3 receptor (Homo sapiens, UniProt P35462)
Sequence (P35462 whole entry): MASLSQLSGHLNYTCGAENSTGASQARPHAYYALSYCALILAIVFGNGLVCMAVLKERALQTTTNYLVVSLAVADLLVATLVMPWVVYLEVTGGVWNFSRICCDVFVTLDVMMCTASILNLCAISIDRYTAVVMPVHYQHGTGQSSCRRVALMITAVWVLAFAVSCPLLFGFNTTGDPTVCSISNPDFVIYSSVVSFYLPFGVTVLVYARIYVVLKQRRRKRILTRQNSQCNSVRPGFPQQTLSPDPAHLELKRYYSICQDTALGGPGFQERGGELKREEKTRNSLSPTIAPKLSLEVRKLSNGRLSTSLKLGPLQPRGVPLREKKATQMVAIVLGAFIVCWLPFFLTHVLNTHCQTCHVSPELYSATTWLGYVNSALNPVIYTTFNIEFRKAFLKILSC
Assay: [3H]YM 09151-2 binding to CHOp-D3 cells
pKi: −log10 of the molar value.
READOUT_TYPE: pKi

>  <COMPOUND>
Oc1cc2c(cc1O)C(c1ccccc1)CNCC2 (stereo not shown) [SKF 38393]

>  <OBS_VALUE>
5.37

$$$$

----------
Target: recombinant human D2 receptor (Homo sapiens)
Sequence (P14416 whole entry): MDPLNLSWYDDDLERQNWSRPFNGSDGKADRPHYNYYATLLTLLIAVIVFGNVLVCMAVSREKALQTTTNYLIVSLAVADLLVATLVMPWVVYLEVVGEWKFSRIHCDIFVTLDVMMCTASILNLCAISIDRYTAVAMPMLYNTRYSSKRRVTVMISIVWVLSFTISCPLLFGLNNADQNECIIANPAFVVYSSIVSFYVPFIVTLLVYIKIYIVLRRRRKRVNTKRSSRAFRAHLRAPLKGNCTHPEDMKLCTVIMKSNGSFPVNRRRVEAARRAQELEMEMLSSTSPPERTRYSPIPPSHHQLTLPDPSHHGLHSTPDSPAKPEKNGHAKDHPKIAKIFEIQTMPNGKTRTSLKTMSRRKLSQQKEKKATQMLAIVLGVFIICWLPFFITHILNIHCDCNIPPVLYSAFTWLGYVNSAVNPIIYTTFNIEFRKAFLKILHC
Assay: biochemical
Format: binding

>  <COMPOUND>
CN1CCc2cc(Cl)c(O)cc2C(c2ccccc2)C1 (stereo not shown)

>  <Ki [nM]>
887

$$$$

----------
Biological target: h5-HT2C receptor (Homo sapiens, UniProt P28335)
Sequence (P28335 33-458): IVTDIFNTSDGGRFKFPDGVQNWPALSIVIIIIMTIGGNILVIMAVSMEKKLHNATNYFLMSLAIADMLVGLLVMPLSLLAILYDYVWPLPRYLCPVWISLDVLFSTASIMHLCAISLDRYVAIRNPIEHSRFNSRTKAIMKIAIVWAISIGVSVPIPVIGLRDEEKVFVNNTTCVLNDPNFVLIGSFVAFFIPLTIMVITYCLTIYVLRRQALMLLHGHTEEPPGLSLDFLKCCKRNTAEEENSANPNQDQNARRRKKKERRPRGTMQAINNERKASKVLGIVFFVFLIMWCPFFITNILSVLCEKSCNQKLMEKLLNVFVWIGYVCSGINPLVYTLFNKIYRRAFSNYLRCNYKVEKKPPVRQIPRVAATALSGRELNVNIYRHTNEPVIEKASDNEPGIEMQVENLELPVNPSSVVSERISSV

>  <COMPOUND_STRUCTURE_STRING>
Cc1cc2c(cc1Cl)N(C(=O)Nc1ccc(Oc3cccnc3C)nc1)CC2

>  <IC50 (pM)>
167

$$$$

----------
Biological target: recombinant human D3 receptor (Homo sapiens, UniProt P35462)
Settings: read-out: D3 mitogenesis EC50 (nM) ± SEM (n); agonist mode; NC: the data did not converge

>  <MOLECULE>
CCN(CC)C(=O)[C@@H]1C=C2c3cccc4[nH]cc(c34)C[C@H]2N(C)C1 [LSD, lysergic acid diethylamide]

>  <TARGET_OR_SYSTEM>
recombinant human D3 receptor (Homo sapiens, UniProt P35462)

>  <EC50 [nM]>
48

$$$$

----------
Reported values of Ki for individual entries
Biological target: UniProt:P21917
Sequence (P21917 1-419): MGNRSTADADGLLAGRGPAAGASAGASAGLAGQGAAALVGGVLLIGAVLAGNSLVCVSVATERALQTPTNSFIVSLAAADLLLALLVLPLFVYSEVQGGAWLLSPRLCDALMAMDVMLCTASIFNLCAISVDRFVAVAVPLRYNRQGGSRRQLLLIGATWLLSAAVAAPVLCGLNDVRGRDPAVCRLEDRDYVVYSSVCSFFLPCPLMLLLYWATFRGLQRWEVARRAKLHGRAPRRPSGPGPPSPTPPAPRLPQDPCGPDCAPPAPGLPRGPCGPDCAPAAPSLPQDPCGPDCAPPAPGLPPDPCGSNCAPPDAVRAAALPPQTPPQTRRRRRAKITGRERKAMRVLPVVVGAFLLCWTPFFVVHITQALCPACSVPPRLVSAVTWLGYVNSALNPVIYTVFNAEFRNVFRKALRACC
Assay: biochemical
Format: binding
READOUT_TYPE: Ki (µM)

>  <COMPOUND>
Oc1cc2c(cc1O)C(c1ccccc1)CNCC2 (stereo not drawn) [SKF 38393]

>  <UNIT_DESCRIPTOR>
µM

>  <QUALIFIER_SYMBOL>
=

>  <OBS_VALUE>
28

$$$$
>  <COMPOUND>
CCN(CC)CCCC(C)Nc1ccnc2cc(Cl)ccc12 (racemic) [Chloroquine]

>  <UNIT_DESCRIPTOR>
µM

>  <QUALIFIER_SYMBOL>
>

>  <OBS_VALUE>
10

$$$$
>  <COMPOUND>
CN1CCc2cc(Cl)c(O)cc2C(c2ccccc2)C1 (stereo not drawn) [SCH23390]

>  <UNIT_DESCRIPTOR>
µM

>  <QUALIFIER_SYMBOL>
=

>  <OBS_VALUE>
9.7

$$$$
